molecular target: KAT-5 (Homo sapiens (Human), UniProt Q92993); test: KAT-5 biochemical inhibition assay (SAMDI mass spectrometry)
Sequence (Q92993 other isoform, or with tags, fused parts or gaps): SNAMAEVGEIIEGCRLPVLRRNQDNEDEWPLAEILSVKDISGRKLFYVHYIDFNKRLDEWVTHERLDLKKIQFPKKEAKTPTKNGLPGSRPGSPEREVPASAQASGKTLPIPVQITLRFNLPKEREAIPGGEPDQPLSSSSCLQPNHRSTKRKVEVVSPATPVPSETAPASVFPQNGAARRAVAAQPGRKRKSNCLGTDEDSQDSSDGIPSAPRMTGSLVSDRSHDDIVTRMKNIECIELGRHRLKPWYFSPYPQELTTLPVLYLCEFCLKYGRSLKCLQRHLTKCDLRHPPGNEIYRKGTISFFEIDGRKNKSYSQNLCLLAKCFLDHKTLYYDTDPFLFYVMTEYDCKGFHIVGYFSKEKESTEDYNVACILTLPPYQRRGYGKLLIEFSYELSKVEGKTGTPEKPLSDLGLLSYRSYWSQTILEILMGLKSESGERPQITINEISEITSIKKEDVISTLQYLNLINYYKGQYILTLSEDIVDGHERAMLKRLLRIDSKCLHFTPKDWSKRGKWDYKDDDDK
pIC50: −log10 of the molar value.
# pIC50 per entry

| compound | pIC50 |
| --- | --- |
| CCNC(=O)NC1CCC(CS(=O)(=O)NNC(=O)c2cc(-c3cn(C)cn3)cc(Cl)c2F)C1 (centres unmarked) | > 5.00 |
| CCOc1ccc(S(=O)(=O)NNC(=O)c2cc(-c3cn(C)cn3)cc(Cl)c2F)cc1 | > 5.00 |
| CCn1c(-c2cc(Cl)c(F)c(C(=O)NNS(=O)(=O)C3CCCCC3)c2)cnc1C | < 4.00 |
| Cn1cnc(-c2cc(Cl)c(F)c(C(=O)NNS(=O)(=O)c3nccn3C)c2)c1 | 4.30 to 5.00 |
| Cc1nc(-c2cc(Cl)c(F)c(C(=O)NNS(=O)(=O)C3CCOCC3)c2)cn1C | 4.00 to 4.30 |
| CNC(=O)N1CC[C@H](CS(=O)(=O)NNC(=O)c2cc(-c3cn(C)cn3)cc(Cl)c2F)C1 | > 5.00 |
| Cn1cnc(-c2cc(Cl)c(F)c(C(=O)NNS(=O)(=O)C[C@H]3CC[C@@H](NC(N)=O)CC3)c2)c1 | > 5.00 |

Reported pIC50 for O=C(NNS(=O)(=O)CC1CCCCC1)c1cc(-n2cccn2)cc(Cl)c1F was > 5.00
